FYI, the data here is from ChEMBL document CHEMBL5154715.

System Tested: Peroxisome proliferator-activated receptor gamma (Homo sapiens)
Protocol Notes: Stabilization of human PPARgamma LBD assessed as change in melting temperature at 50 uM by thermal shift assay
Where ΔTm equals or exceeds 5 °C, the correct label is label 1; where it does not, the label is label 0.

| Compound Structure | Assigned Label |
| --- | --- |
| CCCCCC/C=C\CCCCCCCc1cccc(OC(C)(C)C(=O)O)c1 | label 1 |
| CCCCCCCCCCCCCCCc1cccc(OC(C)(C)C(=O)O)c1 | label 1 |
| CCCCCCCCCCCCCCCc1cccc(OC(C)=O)c1C(=O)O | label 0 |
| CCCCCCCCCCCCCCCc1cccc(OCC(=O)OCC)c1 | label 0 |
| CCCCCCCCCCCCCCCc1cccc(OC(C)(C)C(=O)OCC)c1 | label 0 |

----------
System Tested: Peroxisome proliferator-activated receptor gamma (Homo sapiens, UniProt P37231)
Sequence (P37231 whole entry): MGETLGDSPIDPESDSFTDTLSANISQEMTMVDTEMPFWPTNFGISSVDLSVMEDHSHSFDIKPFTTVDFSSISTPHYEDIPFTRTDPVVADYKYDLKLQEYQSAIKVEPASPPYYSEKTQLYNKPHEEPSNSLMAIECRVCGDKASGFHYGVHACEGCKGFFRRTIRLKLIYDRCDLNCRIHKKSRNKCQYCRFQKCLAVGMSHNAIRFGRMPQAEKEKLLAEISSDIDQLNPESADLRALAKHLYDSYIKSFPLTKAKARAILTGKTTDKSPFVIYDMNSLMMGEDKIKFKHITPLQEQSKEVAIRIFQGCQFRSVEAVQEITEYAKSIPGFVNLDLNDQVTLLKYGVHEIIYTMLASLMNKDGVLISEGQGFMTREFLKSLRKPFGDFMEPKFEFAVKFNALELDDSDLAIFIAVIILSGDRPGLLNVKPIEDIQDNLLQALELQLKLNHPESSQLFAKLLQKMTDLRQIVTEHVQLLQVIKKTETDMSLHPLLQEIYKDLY
Protocol Notes: Agonist activity at human PPARgamma expressed in HEK293 cells by luciferase/beta-galactosidase reporter gene assay
pEC50: −log10 of the molar value.
Where pEC50 equals or exceeds 5, the correct label is Condition met; where it does not, the label is Condition not met.

| Compound Structure | System Tested | Assigned Label |
| --- | --- | --- |
| CCCCCCCCCCCCCCCc1cccc(O)c1C(=O)O | Peroxisome proliferator-activated receptor gamma (Homo sapiens, UniProt P37231) | Condition not met |
| CCCCCCCCCCCCCCCc1cccc(OC(C)(C)C(=O)OCC)c1 | Peroxisome proliferator-activated receptor gamma (Homo sapiens, UniProt P37231) | Condition met |
| CCCCCC/C=C\CCCCCCCc1cccc(OCC(=O)O)c1 | Peroxisome proliferator-activated receptor gamma (Homo sapiens, UniProt P37231) | Condition not met |
| CCCCCCCCCCCCCCCc1cccc(OC(C)(C)C(=O)O)c1 | Peroxisome proliferator-activated receptor gamma (Homo sapiens, UniProt P37231) | Condition met |
| CCCCCCCCCCCCCCCc1cccc(OCC(=O)OCC)c1 | Peroxisome proliferator-activated receptor gamma (Homo sapiens, UniProt P37231) | Condition not met |
| CCCCCCCCCCCCCCCc1cccc(OCC(=O)O)c1 | Peroxisome proliferator-activated receptor gamma (Homo sapiens, UniProt P37231) | Condition met |
| CCCCCC/C=C\CCCCCCCc1cccc(OCC(=O)OCC)c1 | Peroxisome proliferator-activated receptor gamma (Homo sapiens, UniProt P37231) | Condition not met |
| CCCCCC/C=C\CCCCCCCc1cccc(OC(C)(C)C(=O)OCC)c1 | Peroxisome proliferator-activated receptor gamma (Homo sapiens, UniProt P37231) | Condition not met |
| CCCCCC/C=C\CCCCCCCc1cccc(OC(C)(C)C(=O)O)c1 | Peroxisome proliferator-activated receptor gamma (Homo sapiens, UniProt P37231) | Condition met |

----------
System Tested: Peroxisome proliferator-activated receptor gamma (Mus musculus)
Protocol Notes: Agonist activity at human PPARgamma in mouse 3T3-L1 cells assessed as induction of adipogenic differentiation at 25 uM measured after 11 days by Oil Red O staining analysis
Assay type: cell-based
Condition Notes: filed as agonist, time 11.0 day
Calls of active or inactive are those of the source. The rule behind the calls is not given here.

| Compound Structure | Activity |
| --- | --- |
| CCCCCCCCCCCCCCCc1cccc(OC(C)(C)C(=O)O)c1 | Active |
| CCCCCC/C=C\CCCCCCCc1cccc(OC(C)(C)C(=O)O)c1 | Active |
| CCCCCCCCCCCCCCCc1cccc(OC(C)(C)C(=O)OCC)c1 | Active |
| CCCCCCCCCCCCCCCc1cccc(OC(C)=O)c1C(=O)O | Active |
| CCCCCCCCCCCCCCCc1cccc(OCC(=O)OCC)c1 | Active |

----------
System Tested: Peroxisome proliferator-activated receptor delta (Homo sapiens) (UniProt Q03181)
Sequence (Q03181 whole entry, the tested form may be a part): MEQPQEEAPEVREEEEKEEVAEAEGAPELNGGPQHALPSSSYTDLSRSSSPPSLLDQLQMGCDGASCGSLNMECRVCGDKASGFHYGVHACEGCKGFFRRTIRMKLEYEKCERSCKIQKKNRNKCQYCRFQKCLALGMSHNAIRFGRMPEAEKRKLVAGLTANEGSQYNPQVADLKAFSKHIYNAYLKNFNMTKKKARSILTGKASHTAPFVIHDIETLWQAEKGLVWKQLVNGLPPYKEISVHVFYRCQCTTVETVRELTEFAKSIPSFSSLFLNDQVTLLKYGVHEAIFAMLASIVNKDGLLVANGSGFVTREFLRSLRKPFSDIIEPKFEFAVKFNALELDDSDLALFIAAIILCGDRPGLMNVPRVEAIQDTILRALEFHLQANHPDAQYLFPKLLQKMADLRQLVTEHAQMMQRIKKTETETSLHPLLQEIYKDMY
Protocol Notes: Stabilization of human PPARdelta LBD assessed as change in melting temperature at 50 uM by thermal shift assay

| Compound Structure | System Tested | Readout Units | ΔTm |
| --- | --- | --- | --- |
| CCCCCCCCCCCCCCCc1cccc(OC(C)(C)C(=O)O)c1 | Peroxisome proliferator-activated receptor delta (Homo sapiens) (UniProt Q03181) | °C | 11.3 |
| CCCCCCCCCCCCCCCc1cccc(OCC(=O)OCC)c1 | Peroxisome proliferator-activated receptor delta (Homo sapiens) (UniProt Q03181) | °C | 1.2 |
| CCCCCCCCCCCCCCCc1cccc(OC(C)(C)C(=O)OCC)c1 | Peroxisome proliferator-activated receptor delta (Homo sapiens) (UniProt Q03181) | °C | 0.5 |
| CCCCCCCCCCCCCCCc1cccc(OC(C)=O)c1C(=O)O | Peroxisome proliferator-activated receptor delta (Homo sapiens) (UniProt Q03181) | °C | 12 |
| CCCCCC/C=C\CCCCCCCc1cccc(OC(C)(C)C(=O)O)c1 | Peroxisome proliferator-activated receptor delta (Homo sapiens) (UniProt Q03181) | °C | 6.8 |

----------
System Tested: Peroxisome proliferator-activated receptor alpha (Homo sapiens, UniProt Q07869)
Sequence (Q07869 whole entry, the tested form may be a part): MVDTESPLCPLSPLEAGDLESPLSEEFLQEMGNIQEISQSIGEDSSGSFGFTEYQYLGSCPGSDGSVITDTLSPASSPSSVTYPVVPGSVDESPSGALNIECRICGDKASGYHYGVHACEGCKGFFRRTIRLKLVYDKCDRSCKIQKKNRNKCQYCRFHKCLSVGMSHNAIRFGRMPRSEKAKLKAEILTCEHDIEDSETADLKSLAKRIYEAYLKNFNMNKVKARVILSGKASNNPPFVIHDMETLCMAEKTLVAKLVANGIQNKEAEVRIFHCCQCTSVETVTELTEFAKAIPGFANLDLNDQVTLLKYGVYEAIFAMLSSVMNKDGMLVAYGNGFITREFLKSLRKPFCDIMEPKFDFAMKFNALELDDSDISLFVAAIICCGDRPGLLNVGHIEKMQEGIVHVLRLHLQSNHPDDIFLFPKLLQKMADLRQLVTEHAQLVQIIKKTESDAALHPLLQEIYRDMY
Protocol Notes: Agonist activity at human PPARalpha expressed in HEK293 cells by luciferase/beta-galactosidase reporter gene assay
pEC50: −log10 of the molar value.
Where pEC50 equals or exceeds 5, the correct label is condition met; where it does not, the label is condition not met.

| Molecule | Assigned Label |
| --- | --- |
| CCCCCCCCCCCCCCCc1cccc(OC(C)=O)c1C(=O)O | condition met |
| CCCCCCCC/C=C\CCCCCCCC(=O)O [OLEIC ACID] | condition not met |
| CCCCCCCCCCCCCCCc1cccc(OCC(=O)O)c1 | condition met |
| CCCCCCCCCCCCCCCCCC(=O)O [STEARIC ACID] | condition not met |
| CCCCCCCCCCCCCCCc1cccc(OC(C)(C)C(=O)O)c1 | condition met |
| CCCCCCCCCCCCCCCc1cccc(O)c1C(=O)O [ANACARDIC ACID] | condition met |
| CCCCCC/C=C\CCCCCCCc1cccc(OC(C)(C)C(=O)O)c1 | condition met |
| CCCCCC/C=C\CCCCCCCc1cccc(OCC(=O)O)c1 | condition not met |
| CCCCCC/C=C\CCCCCCCc1cccc(OCC(=O)OCC)c1 | condition met |
| CCCCCCCCCCCCCCCc1ccc(C(=O)O)c(OC)c1 | condition not met |
| CCCCCC/C=C\CCCCCCCc1cccc(OC(C)(C)C(=O)OCC)c1 | condition not met |
| CCCCCCCCCC(=O)O [DECANOIC ACID] | condition not met |

----------
System Tested: Peroxisome proliferator-activated receptor alpha (Homo sapiens)
Protocol Notes: Stabilization of human PPARalpha LBD assessed as change in melting temperature at 25 uM by thermal shift assay
Each item that follows carries a reported ΔTm.

| Compound Structure | Readout Units | ΔTm |
| --- | --- | --- |
| CCCCCCCCCCCCCCCc1cccc(OC(C)(C)C(=O)O)c1 | °C | 10.8 |
| CCCCCCCCCCCCCCCc1cccc(OC(C)=O)c1C(=O)O | °C | 17.4 |
| CCCCCCCCCCCCCCCc1cccc(OC(C)(C)C(=O)OCC)c1 | °C | 0.6 |
| CCCCCCCCCCCCCCCc1cccc(OCC(=O)OCC)c1 | °C | -4.5 |
| CCCCCC/C=C\CCCCCCCc1cccc(OC(C)(C)C(=O)O)c1 | °C | 3.8 |

----------
Protocol Notes: Cmax in C57BL/6 mouse at 100 mg/kg, po measured upto 24 hrs by LC-MS/MS analysis
Type: ADME, organism-based
Parameters: time < 24 hrs, dose 100 mg/kg, route po
Condition Notes: in vivo

| Compound Structure | Cmax, µg/mL |
| --- | --- |
| CCCCCCCCCCCCCCCc1cccc(OC(C)(C)C(=O)O)c1 | 76 |

----------
Protocol Notes: Tmax in C57BL/6 mouse at 100 mg/kg, po measured upto 24 hrs by LC-MS/MS analysis
Condition Notes: in vivo
Quantity Measured: Tmax (h)

| Compound Structure | Endpoint Value |
| --- | --- |
| CCCCCCCCCCCCCCCc1cccc(OC(C)(C)C(=O)O)c1 | 4 |

----------
System Tested: Peroxisome proliferator-activated receptor alpha (Homo sapiens, UniProt Q07869)
Protocol Notes: Agonist activity at human PPARalpha expressed in HEK293 cells by luciferase/beta-galactosidase reporter gene assay
Each item that follows carries a reported EC50.
Quantity Measured: EC50 (µM)

| Compound | Quantity Measured | Endpoint Value |
| --- | --- | --- |
| CCCCCCCCCCCCCC(=O)O [MYRISTIC ACID] | EC50 | 13 |
| CCCCCCCCCCCCCCCc1ccc(C(=O)O)c(O)c1 | EC50 | 8.9 |
| CCCCCCCCCCCCCCCc1cccc(OC(C)(C)C(=O)OCC)c1 | EC50 | 8.9 |
